Task for the reader: assign each of the following compounds its reported log10 CC50 at 96 h.
Protocol: Cytotoxicity against human CEM cells after 4 days
Format: cell-based
Particulars: CEM (CCRF-CEM) cells
Hello, just confirming the data are log10 of CC50 at 96 h with units of µM.

Observe how each entry below is paired with its result.
INSERT INTO assay_data (compound_smiles, assay_readout, assay_value) VALUES
  ('Cc1cn([C@@H]2O[C@H](CO[Si](C)(C)C(C)(C)C)[C@@]3(OS(=O)(=O)C=C3N)[C@H]2O[Si](C)(C)C(C)(C)C)c(=O)n(C(=O)C2CC2)c1=O', 'log10 CC50 at 96 h', 1.04),
  ('Cc1cn([C@@H]2O[C@H](CO[Si](C)(C)C(C)(C)C)[C@@]3(OS(=O)(=O)C=C3N)[C@H]2O[Si](C)(C)C(C)(C)C)c(=O)n(C(=O)CCCC(=O)N(C)C)c1=O', 'log10 CC50 at 96 h', 0.98),
  ('CNC(=O)CCCC(=O)n1c(=O)c(C)cn([C@@H]2O[C@H](CO[Si](C)(C)C(C)(C)C)[C@@]3(OS(=O)(=O)C=C3N)[C@H]2O[Si](C)(C)C(C)(C)C)c1=O', 'log10 CC50 at 96 h', 0.96),
  ('CSC(=O)CCCC(=O)n1c(=O)c(C)cn([C@@H]2O[C@H](CO[Si](C)(C)C(C)(C)C)[C@@]3(OS(=O)(=O)C=C3N)[C@H]2O[Si](C)(C)C(C)(C)C)c1=O', 'log10 CC50 at 96 h', 1.00),
  ('COC(=O)c1cccc(C(=O)n2c(=O)c(C)cn([C@@H]3O[C@H](CO[Si](C)(C)C(C)(C)C)[C@@]4(OS(=O)(=O)C=C4N)[C@H]3O[Si](C)(C)C(C)(C)C)c2=O)c1', 'log10 CC50 at 96 h', 1.15),
  ('Cc1cn([C@@H]2O[C@H](CO[Si](C)(C)C(C)(C)C)[C@@]3(OS(=O)(=O)C=C3N)[C@H]2O[Si](C)(C)C(C)(C)C)c(=O)n(C(=O)CCCC(=O)OCc2ccccc2)c1=O', 'log10 CC50 at 96 h', 0.96);

State recorded log10 CC50 at 96 h for all listed compounds.
1. Cc1cn([C@@H]2O[C@H](CO[Si](C)(C)C(C)(C)C)[C@@]3(OS(=O)(=O)C=C3N)[C@H]2O[Si](C)(C)C(C)(C)C)c(=O)n(C(=O)c2ccccc2)c1=O
2. Cc1cn([C@@H]2O[C@H](CO[Si](C)(C)C(C)(C)C)[C@@]3(OS(=O)(=O)C=C3N)[C@H]2O[Si](C)(C)C(C)(C)C)c(=O)n(C(=O)CCCBr)c1=O
3. Cc1cn([C@@H]2O[C@H](CO[Si](C)(C)C(C)(C)C)[C@@]3(OS(=O)(=O)C=C3N)[C@H]2O[Si](C)(C)C(C)(C)C)c(=O)n(C)c1=O
4. COC(=O)CCCC(=O)n1c(=O)c(C)cn([C@@H]2O[C@H](CO[Si](C)(C)C(C)(C)C)[C@@]3(OS(=O)(=O)C=C3N)[C@H]2O[Si](C)(C)C(C)(C)C)c1=O
5. Cc1cn([C@@H]2O[C@H](CO[Si](C)(C)C(C)(C)C)[C@@]3(OS(=O)(=O)C=C3N)[C@H]2O[Si](C)(C)C(C)(C)C)c(=O)n(C(=O)CCCC(N)=O)c1=O
6. Cc1cn([C@@H]2O[C@H](CO[Si](C)(C)C(C)(C)C)[C@@]3(OS(=O)(=O)C=C3N)[C@H]2O[Si](C)(C)C(C)(C)C)c(=O)[nH]c1=O
7. Cc1cn([C@@H]2O[C@H](CO[Si](C)(C)C(C)(C)C)[C@@]3(OS(=O)(=O)C=C3N)[C@H]2O[Si](C)(C)C(C)(C)C)c(=O)n(C(=O)CCCC(=O)NCc2ccccc2)c1=O

1.73
1.04
2.06
1.00
0.94
1.08
0.94
